# assayed.target: recombinant cynomolgus monkey CD3ε/δ heterodimer (cynomolgus monkey) (UniProt Q95LI5)
# Sequence (Q95LI5 22-117, stated change not applied, chain 1 of 2): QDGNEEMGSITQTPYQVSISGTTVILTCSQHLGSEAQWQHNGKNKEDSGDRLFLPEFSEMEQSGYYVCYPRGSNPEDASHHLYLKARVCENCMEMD
# Sequence (Q95LI8 22-105, stated change not applied, chain 2 of 2, further chain): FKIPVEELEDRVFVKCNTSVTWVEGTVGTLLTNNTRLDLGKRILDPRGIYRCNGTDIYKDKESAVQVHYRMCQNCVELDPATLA
# procedure.details: ELISA, coated CD3ε/δ
Here, each record is paired with measured Absorbance (450 nm) data.
assay.metric: Absorbance (450 nm)

binder: D03 (antibody, human IgG1, lambda, L234A L235A, V domains shown) VH: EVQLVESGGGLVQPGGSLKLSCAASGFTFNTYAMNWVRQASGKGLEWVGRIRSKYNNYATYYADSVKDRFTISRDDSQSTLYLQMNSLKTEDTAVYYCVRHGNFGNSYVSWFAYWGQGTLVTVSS VL: QAVVTQEPSLTVSPGGTVTLTCRSSTGAVTTSNYANWFQQKPGQAPRTLIGGTNKRAPWTPARFSGSLLGGKAALTLSGAQPEDEAEYYCALWYSNLWVFGGGTKLTVLG
experimental.value: 0.13
//
binder: D04 (antibody, human IgG1, lambda, L234A L235A, V domains shown) VH: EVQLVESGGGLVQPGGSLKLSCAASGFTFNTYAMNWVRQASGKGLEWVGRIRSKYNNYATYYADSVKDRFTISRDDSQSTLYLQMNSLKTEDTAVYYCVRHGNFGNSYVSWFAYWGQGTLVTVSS VL: QAVVTQEPSLTVSPGGTVTLTCRSSTGAVTTSNYANWFQQKPGQAPRTLIGGTNKRAPWTPARFSGSLLGDKAALTLSGAQPEDEAEYYCALWYSNLWVFGGGTKLTVLG
experimental.value: 0.072
//
binder: E13 (antibody, human IgG1, lambda, L234A L235A, V domains shown) VH: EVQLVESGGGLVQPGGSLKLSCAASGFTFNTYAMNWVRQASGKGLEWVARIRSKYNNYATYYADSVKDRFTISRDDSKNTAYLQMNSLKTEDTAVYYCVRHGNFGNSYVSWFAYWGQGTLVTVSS VL: QAVVTQEPSLTVSPGGTVTLTCRSSTGAVTTSNYANWVQQKPGQAPRGLIYGTNKRAPWTPARFSGSLLGGKAALTLSGAQPEDEAEYYCALWYSNLWVFGGGTKLTVLG
experimental.value: 0.114
//
binder: B03 (antibody, human IgG1, lambda, L234A L235A, V domains shown) VH: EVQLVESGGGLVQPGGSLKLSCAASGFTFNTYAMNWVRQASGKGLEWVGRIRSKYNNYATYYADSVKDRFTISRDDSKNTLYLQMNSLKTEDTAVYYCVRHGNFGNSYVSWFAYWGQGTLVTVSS VL: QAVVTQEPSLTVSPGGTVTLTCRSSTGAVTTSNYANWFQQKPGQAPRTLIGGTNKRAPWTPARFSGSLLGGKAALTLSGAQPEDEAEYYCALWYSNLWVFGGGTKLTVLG
experimental.value: 0.091
//
binder: E04 (antibody, human IgG1, lambda, L234A L235A, V domains shown) VH: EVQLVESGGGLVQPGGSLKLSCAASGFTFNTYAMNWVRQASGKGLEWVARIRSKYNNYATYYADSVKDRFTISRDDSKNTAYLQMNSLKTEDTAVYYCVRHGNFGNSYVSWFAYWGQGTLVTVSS VL: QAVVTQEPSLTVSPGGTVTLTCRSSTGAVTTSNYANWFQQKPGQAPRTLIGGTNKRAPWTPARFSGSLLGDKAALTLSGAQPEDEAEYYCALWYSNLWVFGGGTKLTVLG
experimental.value: 0.067
